Provenance of the data: ChEMBL document CHEMBL4118225

Hi! I'm sharing some IC50 results obtained with Non-receptor tyrosine-protein kinase TYK2 (Homo sapiens).
Sequence (P29597 whole entry): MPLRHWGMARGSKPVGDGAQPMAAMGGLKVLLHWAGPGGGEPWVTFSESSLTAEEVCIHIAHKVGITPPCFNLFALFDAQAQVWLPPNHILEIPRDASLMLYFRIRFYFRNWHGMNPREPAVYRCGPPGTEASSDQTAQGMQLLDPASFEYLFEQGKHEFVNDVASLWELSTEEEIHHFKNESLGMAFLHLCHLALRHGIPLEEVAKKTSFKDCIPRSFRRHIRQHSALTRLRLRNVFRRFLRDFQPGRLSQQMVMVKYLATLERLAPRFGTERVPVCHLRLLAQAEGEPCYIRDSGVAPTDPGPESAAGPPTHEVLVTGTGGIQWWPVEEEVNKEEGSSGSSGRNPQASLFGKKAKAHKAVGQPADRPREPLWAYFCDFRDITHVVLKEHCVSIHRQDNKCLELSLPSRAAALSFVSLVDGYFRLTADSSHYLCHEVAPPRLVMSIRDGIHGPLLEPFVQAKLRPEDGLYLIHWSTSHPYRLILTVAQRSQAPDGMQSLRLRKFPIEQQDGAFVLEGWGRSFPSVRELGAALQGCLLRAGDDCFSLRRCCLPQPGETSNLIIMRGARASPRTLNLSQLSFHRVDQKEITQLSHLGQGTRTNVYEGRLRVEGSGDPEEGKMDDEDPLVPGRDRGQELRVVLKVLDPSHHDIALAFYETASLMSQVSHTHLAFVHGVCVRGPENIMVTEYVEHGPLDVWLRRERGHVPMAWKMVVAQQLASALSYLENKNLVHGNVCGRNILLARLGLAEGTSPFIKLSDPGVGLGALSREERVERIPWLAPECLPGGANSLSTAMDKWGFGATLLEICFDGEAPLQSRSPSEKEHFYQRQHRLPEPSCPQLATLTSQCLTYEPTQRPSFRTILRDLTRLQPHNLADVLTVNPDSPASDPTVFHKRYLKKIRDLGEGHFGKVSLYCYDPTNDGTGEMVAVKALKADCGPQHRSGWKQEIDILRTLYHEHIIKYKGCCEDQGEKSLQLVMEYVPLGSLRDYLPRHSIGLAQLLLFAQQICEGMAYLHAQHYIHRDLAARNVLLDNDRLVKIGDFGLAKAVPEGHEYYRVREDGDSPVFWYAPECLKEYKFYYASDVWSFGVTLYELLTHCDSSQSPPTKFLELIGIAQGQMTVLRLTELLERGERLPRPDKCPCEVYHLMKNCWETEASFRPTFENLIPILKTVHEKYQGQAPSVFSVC

{"columns": ["smi", "IC50 (nM)"],
 "data": [
  ["CC(C)(O)C(=O)N1CCN(c2ccc(C(F)(F)F)c(C3=C(c4c[nH]c5ccccc45)C(=O)NC3=O)c2)CC1", 2110],
  ["CN(C)C(=O)CCc1ccc(-c2nc3cnc4[nH]ccc4c3n2C2CCCCC2)o1", 139],
  ["N#C/C=C/c1ccc(-c2nc3cnc4[nH]ccc4c3n2C2CCCCC2)o1", 44]
]}

---

- assayedTarget: Tyrosine-protein kinase JAK1 (Homo sapiens)
- Sequence (P23458 whole entry): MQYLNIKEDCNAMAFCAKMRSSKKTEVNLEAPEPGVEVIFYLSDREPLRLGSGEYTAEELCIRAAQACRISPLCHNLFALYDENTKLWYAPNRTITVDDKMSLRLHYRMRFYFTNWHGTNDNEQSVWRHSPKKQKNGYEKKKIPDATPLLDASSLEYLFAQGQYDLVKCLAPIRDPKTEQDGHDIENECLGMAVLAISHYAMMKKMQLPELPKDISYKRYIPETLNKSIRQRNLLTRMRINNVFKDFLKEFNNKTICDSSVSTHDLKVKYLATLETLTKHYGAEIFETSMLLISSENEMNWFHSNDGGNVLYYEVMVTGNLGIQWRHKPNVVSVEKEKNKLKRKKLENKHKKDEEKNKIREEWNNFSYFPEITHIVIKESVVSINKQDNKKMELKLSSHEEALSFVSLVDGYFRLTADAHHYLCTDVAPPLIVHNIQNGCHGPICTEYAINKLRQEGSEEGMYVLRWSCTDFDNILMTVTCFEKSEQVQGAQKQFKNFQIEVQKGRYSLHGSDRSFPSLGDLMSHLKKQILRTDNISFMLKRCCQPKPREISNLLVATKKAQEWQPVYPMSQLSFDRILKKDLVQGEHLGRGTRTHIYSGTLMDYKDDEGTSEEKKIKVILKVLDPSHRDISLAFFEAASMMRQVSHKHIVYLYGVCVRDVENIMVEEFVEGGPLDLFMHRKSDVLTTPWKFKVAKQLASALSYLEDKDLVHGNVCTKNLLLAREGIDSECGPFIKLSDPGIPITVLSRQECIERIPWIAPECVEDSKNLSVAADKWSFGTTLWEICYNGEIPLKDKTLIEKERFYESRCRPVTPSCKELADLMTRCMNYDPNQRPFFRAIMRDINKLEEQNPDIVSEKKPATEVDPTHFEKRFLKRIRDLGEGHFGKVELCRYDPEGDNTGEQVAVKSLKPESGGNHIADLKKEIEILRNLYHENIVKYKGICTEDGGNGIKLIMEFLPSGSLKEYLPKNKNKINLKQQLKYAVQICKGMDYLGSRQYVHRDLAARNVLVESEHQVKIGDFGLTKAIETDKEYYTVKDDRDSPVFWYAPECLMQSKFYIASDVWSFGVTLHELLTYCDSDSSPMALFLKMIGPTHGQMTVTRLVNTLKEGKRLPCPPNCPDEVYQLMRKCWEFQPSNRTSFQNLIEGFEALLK
pIC50: −log10 of the molar value.
Recorded pIC50 values for a group of compounds are listed next.

{"columns": ["smi", "pIC50"],
 "data": [
  ["N#CC(C#N)=Cc1ccc(-c2nc3cnc4[nH]ccc4c3n2C2CCCCC2)o1", 8.40],
  ["CN1CCN(C(=O)C(C#N)=Cc2ccc(-c3nc4cnc5[nH]ccc5c4n3C3CCCCC3)o2)CC1", 6.93],
  ["CC(C)(O)C(=O)N1CCN(c2ccc(C(F)(F)F)c(C3=C(c4c[nH]c5ccccc45)C(=O)NC3=O)c2)CC1", 6.46]
]}

---

- assayedTarget: Tyrosine-protein kinase JAK3 (Homo sapiens)
- Sequence (P52333 whole entry): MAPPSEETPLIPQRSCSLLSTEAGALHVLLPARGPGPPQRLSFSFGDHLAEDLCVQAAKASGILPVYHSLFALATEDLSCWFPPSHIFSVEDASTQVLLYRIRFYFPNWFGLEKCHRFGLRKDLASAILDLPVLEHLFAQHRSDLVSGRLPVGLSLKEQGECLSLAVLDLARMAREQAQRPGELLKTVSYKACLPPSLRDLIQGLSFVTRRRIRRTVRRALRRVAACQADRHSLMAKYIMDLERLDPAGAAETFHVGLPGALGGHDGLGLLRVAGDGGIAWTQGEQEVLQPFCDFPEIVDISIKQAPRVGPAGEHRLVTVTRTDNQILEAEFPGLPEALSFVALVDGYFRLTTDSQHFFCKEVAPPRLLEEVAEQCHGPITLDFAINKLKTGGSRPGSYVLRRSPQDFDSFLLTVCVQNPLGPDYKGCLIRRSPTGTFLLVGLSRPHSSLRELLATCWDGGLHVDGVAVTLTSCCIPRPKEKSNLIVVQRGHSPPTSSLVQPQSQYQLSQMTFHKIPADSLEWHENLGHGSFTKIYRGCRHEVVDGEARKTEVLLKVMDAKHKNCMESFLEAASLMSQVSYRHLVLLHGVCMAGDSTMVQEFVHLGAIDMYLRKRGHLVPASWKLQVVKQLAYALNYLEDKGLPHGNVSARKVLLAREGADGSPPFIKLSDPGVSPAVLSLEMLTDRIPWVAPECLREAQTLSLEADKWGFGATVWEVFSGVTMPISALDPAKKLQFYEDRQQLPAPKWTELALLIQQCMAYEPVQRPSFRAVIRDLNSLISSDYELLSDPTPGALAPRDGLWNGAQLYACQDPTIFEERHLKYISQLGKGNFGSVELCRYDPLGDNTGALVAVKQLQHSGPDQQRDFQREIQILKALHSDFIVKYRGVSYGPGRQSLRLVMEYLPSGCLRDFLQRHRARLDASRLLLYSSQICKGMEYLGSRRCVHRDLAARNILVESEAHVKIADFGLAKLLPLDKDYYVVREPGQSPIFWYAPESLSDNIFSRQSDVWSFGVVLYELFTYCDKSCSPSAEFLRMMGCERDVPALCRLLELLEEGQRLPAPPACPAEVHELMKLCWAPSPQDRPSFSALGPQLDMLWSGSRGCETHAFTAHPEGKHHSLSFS
pIC50: −log10 of the molar value.
Param threshold (8) applies to pIC50; output TRUE when value >= threshold, FALSE when value < threshold.

{"columns": ["smi", "classLabel"],
 "data": [
  ["N#C/C=C/c1ccc(-c2nc3cnc4[nH]ccc4c3n2C2CCCCC2)o1", "TRUE"],
  ["CN(C)C(=O)CCc1ccc(-c2nc3cnc4[nH]ccc4c3n2C2CCCCC2)o1", "FALSE"],
  ["CN1CCN(C(=O)C(C#N)=Cc2ccc(-c3nc4cnc5[nH]ccc5c4n3C3CCCCC3)o2)CC1", "TRUE"],
  ["N#CC(C#N)=Cc1ccc(-c2nc3cnc4[nH]ccc4c3n2C2CCCCC2)o1", "TRUE"]
]}
